Data provenance is ChEMBL document CHEMBL1124798.

Target: Kappa-type opioid receptor (Cavia porcellus)
Test: Opioid receptor kappa 1 antagonistic activity was measured by the displacement of ethylketazocine in the guinea pig ileum at a concentration of 100 nM
Format: functional, tissue-based
PROPERTY: IC50 ratio

> print(dat)
                                chem.smiles    property  experimental.value
1  CN1CC[C@]23c4c5ccc(O)c4O[C@H]2c2[nH]c4ccccc4c2C[C@@]3(O)[C@H]1C5  IC50 ratio                 0.6
2  Oc1ccc2c3c1O[C@H]1c4[nH]c5cc6ccccc6cc5c4C[C@@]4(O)[C@@H](C2)N(CC2CC2)CC[C@]314  IC50 ratio                0.91
3  CC(=O)O[C@@]12Cc3c([nH]c4ccccc34)[C@@H]3Oc4c(O)ccc5c4[C@@]31CCN(CC1CC1)[C@@H]2C5  IC50 ratio                 1.8
4  Oc1ccc2c3c1O[C@H]1c4[nH]c5c(Br)cccc5c4C[C@@]4(O)[C@@H](C2)N(CC2CC2)CC[C@]314  IC50 ratio                 1.7
